B1: FAM46C (parent)
chain: VRSRLEEAGIKVHDVRLNGSAAGH

Variants of: B1
protocol: protein stability index of a GFP-peptide fusion (GPS, HEK-293T) (PSI 1-6); higher = more stable;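 further: lentivirally expressed fusions sorted by FACS into six bins by GFP to DsRed ratio, PSI derived from sequencing read proportions per bin multiplied by bin number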
conditions_used: c terminus: a fixed tail appended
Documented protein stability index across a set of variants
measured_attribute: protein stability index

> print(dat)
   alteration  reported.result
1         R4S                3
2         L5Y             3.04
3        H13W             2.02
